test-summary: physchem
settings: octanol/water
Description: Partition coefficient (logP)
metric-name: logP
Give bare numbers.

These solved cases illustrate the format of a correct answer.
CN1CC=C(n2ncc3ccccc32)CC1 :: 2.85
CN1CC=C(n2ccnc2)CC1 :: 1.31
CN1CC=C(c2ccccn2)CC1 :: 1.24

Respectfully, I request logP for each entry included below.
1. CN1CC=C(c2ccc[nH]2)CC1
2. CN1CC=C(c2cccnc2)CC1
3. CN1CC=C(n2nccn2)CC1
4. CN1CC=C(n2ccnn2)CC1
5. CN1CC=C(n2nnc3ccccc32)CC1

[1.27, 1.44, 1.13, 1.13, 2.36]

---

test-summary: physchem
settings: octanol/water
Rule: logP of 3 or more gives Fulfilled; anything lower gives Not fulfilled.

Item CN1CC=C(c2cccn2C)CC1 with logP of 3 or above?
Not fulfilled

Item CN1CC=C(n2cnc3ccccc32)CC1 with logP of 3 or above?
Not fulfilled

Item CN1CC=C(c2ccncc2)CC1 with logP of 3 or above?
Not fulfilled

Item CN1CC=C(n2ccc3ccccc32)CC1 with logP of 3 or above?
Fulfilled

Item CN1CC=C(n2cccc2)CC1 with logP of 3 or above?
Not fulfilled
